Parameter: DMS-153 TDCC EC50. Scope: all listed entries.
# system.tested: human DLL3 on DLL3-expressing tumor cell lines (human) (UniProt Q9NYJ7)
# Sequence (Q9NYJ7 27-618 limits assumed): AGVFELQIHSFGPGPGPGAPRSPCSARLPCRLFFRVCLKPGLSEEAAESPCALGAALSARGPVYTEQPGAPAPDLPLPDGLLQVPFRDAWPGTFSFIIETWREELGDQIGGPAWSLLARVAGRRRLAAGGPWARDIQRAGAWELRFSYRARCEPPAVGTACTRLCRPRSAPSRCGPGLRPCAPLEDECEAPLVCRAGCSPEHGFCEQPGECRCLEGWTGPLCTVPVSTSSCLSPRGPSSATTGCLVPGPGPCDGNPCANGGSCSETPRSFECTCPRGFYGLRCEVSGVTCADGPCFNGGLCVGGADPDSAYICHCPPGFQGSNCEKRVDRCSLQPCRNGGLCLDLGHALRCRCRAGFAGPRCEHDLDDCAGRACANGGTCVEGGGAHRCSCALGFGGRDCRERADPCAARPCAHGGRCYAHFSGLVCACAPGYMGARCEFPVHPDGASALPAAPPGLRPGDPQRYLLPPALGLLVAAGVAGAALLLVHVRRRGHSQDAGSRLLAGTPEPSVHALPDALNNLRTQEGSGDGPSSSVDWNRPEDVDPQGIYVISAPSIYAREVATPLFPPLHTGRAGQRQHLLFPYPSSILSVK
# experiment: cell-based or functional assay
Could you give me the number in nM? Just the number is fine.

The reported DMS-153 TDCC EC50 of the binder 4H11-M34L anti-DLL3 trispecific protein (protein, not shown: large carriers) EVQLVESGGGLVQPGGSLTLSCAASGSSVSRLSLAWYRQAPGKKRELVAGISVDGSTDYIDSVKGRFTISRDNAKNSVYLQMNSLRAEDTAVYYCYAYRWTTRLTYWGQGTLVTVSS was 0.13

The reported DMS-153 TDCC EC50 of the binder 2F11 anti-DLL3 trispecific protein (protein, not shown: large carriers) EVQLVESGGGLVQPGGSLTLSCVASGSVSSINAMGWYRRAPGKQRELVAGISSDGSKVYKDSVKGRFTISRDNAKNSVYLQMNSLRAEDTAVYYCYYFRTVSGSSMGYWGQGTLVTVSS was 0.049

The reported DMS-153 TDCC EC50 of the binder 4D09-M34L anti-DLL3 trispecific protein (protein, not shown: large carriers) EVQLVESGGGLVQPGGSLTLSCAASGSSVKFLSLAWYRQAPGKKRELVAGISADGSTDYILSVKGRFTISRDNAKNSVYLQMNSLRAEDTAVYYCYAYEWTTRYTYWGQGTLVTVSS was 0.054

The measured values listed here are drawn from patent US20240141072A1.
